Test system: A. baumannii ATCC19606
test_description: microbe, parasite or virus in culture
run_conditions: supplement CSV; 12.5% MH pH 7.4
No end group written: not given here.
Each item that follows carries a reported MIC A. baumannii ATCC19606.
Number in µg/mL, nothing else.

Here's what some known entries look like.
sequence_data: VDKPPYLPRPRPPRRIYNR [sr9Cterm-Onc] (VDKPPYLPRPRPPRRIYNR-NH2; also: residues 11-19 stereorandomized (1:1 L/D mixture))
MIC A. baumannii ATCC19606, µg/mL: 4
//
sequence_data: VDKPPYLPRPRPPRRIYNR [sr12Cterm-Onc] (VDKPPYLPRPRPPRRIYNR-NH2; also: residues 8-19 stereorandomized (1:1 L/D mixture))
MIC A. baumannii ATCC19606, µg/mL: 8

Query: Dear colleague, I am looking for the recorded MIC A. baumannii ATCC19606 of the following sequence: VDKPPYLPRPRPPRRIYNR [sr8Cterm-Onc] (VDKPPYLPRPRPPRRIYNR-NH2; also: residues 12-19 stereorandomized (1:1 L/D mixture))
Response: 4

---

Tested on: S. aureus COL (MRSA)
test_description: microbe, parasite or virus in culture
run_conditions: S. aureus COL (MRSA); full Müller–Hinton medium; 16–20 h at 37 °C
No end group written: not given here.
Each item that follows carries a reported MIC S. aureus, Full MHB.

sequence_data: VDKPPYLPRPRPPRRIYNR [sr6Cterm-Onc] (VDKPPYLPRPRPPRRIYNR-NH2; also: residues 14-19 stereorandomized (1:1 L/D mixture))
obs_value: > 64 µg/mL
//
sequence_data: VDKPPYLPRPRPPRRIYNR [sr7Cterm-Onc] (VDKPPYLPRPRPPRRIYNR-NH2; also: residues 13-19 stereorandomized (1:1 L/D mixture))
obs_value: > 64 µg/mL
//
sequence_data: VDKPPYLPRPRPPRRIYNR [sr5Cterm-Onc] (VDKPPYLPRPRPPRRIYNR-NH2; also: residues 15-19 stereorandomized (1:1 L/D mixture))
obs_value: > 64 µg/mL
//
sequence_data: VDKPPYLPRPRPPRRIYNR [sr3Nterm-Onc] (VDKPPYLPRPRPPRRIYNR-NH2; also: residues 1-3 stereorandomized (1:1 L/D mixture))
obs_value: >64 / 64 μg/mL

Now for another entry.
Query: Dear colleague, I am looking for the recorded MIC S. aureus, Full MHB of the following sequence: VDKPPYLPRPRPPRRIYNR [sr11Cterm-Onc] (VDKPPYLPRPRPPRRIYNR-NH2; also: residues 9-19 stereorandomized (1:1 L/D mixture))
Response: >64 / 64 μg/mL

---

Test system: P. aeruginosa ZEM-1A
test_description: microbe, parasite or virus in culture
run_conditions: clinical isolate; 12.5% MHB pH 7.4; 16–20 h at 37 °C; cells marked c: single measurement (in duplicates)
No end group written: not given here.
Each item that follows carries a reported MIC P. aeruginosa ZEM-1A, 12.5% MHB.

Here's what some known entries look like.
sequence_data: VDKPPYLPRPRPPRRIYNR [sr-Onc] (VDKPPYLPRPRPPRRIYNR-NH2; also: all 19 residues stereorandomized (1:1 L/D mixture))
value_kind: MIC P. aeruginosa ZEM-1A, 12.5% MHB
obs_value: >64/64 ^c μg/mL

sequence_data: VDKPPYLPRPRPPRRIYNR [sr14Nterm-Onc] (VDKPPYLPRPRPPRRIYNR-NH2; also: residues 1-14 stereorandomized (1:1 L/D mixture))
value_kind: MIC P. aeruginosa ZEM-1A, 12.5% MHB
obs_value: >64/>64 ^c μg/mL

Query: Dear colleague, I am looking for the recorded MIC P. aeruginosa ZEM-1A, 12.5% MHB of the following sequence: VDKPPYLPRPRPPRRIYNR [sr9Cterm-Onc] (VDKPPYLPRPRPPRRIYNR-NH2; also: residues 11-19 stereorandomized (1:1 L/D mixture))
Response: 4 to 8 µg/mL
